The measurements presented in this section are drawn from patent US5859333A.

Biological target: sweet corn SGP (Zea mays, UniProt P80607)
Construct: not recombinant
Sequence (P80607 whole entry): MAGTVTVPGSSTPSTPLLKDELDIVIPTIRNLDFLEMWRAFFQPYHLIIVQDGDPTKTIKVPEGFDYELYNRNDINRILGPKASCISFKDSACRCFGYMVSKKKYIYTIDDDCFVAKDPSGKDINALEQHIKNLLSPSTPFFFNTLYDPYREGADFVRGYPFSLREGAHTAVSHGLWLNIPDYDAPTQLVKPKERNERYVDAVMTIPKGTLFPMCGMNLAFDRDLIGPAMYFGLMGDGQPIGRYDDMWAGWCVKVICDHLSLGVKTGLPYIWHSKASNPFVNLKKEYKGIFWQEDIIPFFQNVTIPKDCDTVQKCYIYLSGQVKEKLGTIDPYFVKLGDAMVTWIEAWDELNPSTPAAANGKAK
Assay: Self-glucosylating protein (SGP) assay, incorporation of 14C-glucose from UDP-[14C]glucose into TCA-precipitable protein
Format: biochemical
Conditions: result in words
measured.metric: inhibitory effect on activity of sweet corn SGP

O=[N+]([O-])c1ccc(O[C@@H]2O[C@H](CO)[C@@H](O)[C@H](O)[C@H]2O)cc1 [p-nitrophenyl-beta-glucoside] = no effect
O=[N+]([O-])c1ccc(O)cc1 [p-Nitrophenol] = no effect
O=[N+]([O-])c1ccc(O[C@H]2O[C@H](CO)[C@@H](O)[C@H](O)[C@H]2O)cc1 [p-nitrophenyl-alpha-glucoside] = no effect

###

Biological target: sweet corn SGP (Zea mays, UniProt P80607)
Construct: not recombinant
Assay: Self-glucosylating protein (SGP) assay, incorporation of 14C-glucose from UDP-[14C]glucose into TCA-precipitable protein
measured.metric: pIC50
Conceptually, pIC50 converts a concentration in mol/L into minus its log10.

Query pIC50 for Nc1ncnc2c1ncn2[C@@H]1O[C@H](COP(=O)(O)OP(=O)(O)OP(=O)(O)O)[C@@H](O)[C@H]1O [ATP, adenosine triphosphate] 4.00
